- method_description: Lethal concentration for inhibitory activity evaluated in NCI-60 tumor cell screen
- Assay type: functional
- protocol_conditions: human
Parameter LC50: see the listing below.

| compound | LC50 |
| --- | --- |
| CC[C@H](C)[C@H]1NC(=O)[C@@H](NC(=O)[C@@H](CC(C)C)N(C)C(=O)CNC(=O)Cc2cc(=O)oc3cc(N(C)C)ccc23)[C@@H](C)OC(=O)[C@H](Cc2ccc(OC)cc2)N(C)C(=O)[C@@H]2CCCN2C(=O)[C@H](CC(C)C)NC(=O)[C@@H](C)C(=O)[C@H](C(C)C)OC(=O)C[C@@H]1O | 7.2 µM |
| CC[C@H](C)[C@H]1NC(=O)[C@@H](NC(=O)[C@@H](CC(C)C)N(C)C(=O)C2CCCN2)[C@@H](C)OC(=O)[C@H](Cc2ccc(OC)cc2)N(C)C(=O)[C@@H]2CCCN2C(=O)[C@H](CC(C)C)NC(=O)[C@@H](C)C(=O)[C@H](C(C)C)OC(=O)C[C@@H]1O (some centres not stated) | 0.21 µM |

====

- method_description: Total Growth inhibitory activity evaluated in NCI-60 tumor cell screen
- Assay type: functional
- protocol_conditions: Homo sapiens
We label by threshold. Values of TGI strictly beneath 20 nM are condition met. Values of 20 nM and up are condition not met.

| compound | class_label |
| --- | --- |
| CC[C@H](C)[C@H]1NC(=O)[C@@H](NC(=O)[C@@H](CC(C)C)N(C)C(=O)C2CCCN2)[C@@H](C)OC(=O)[C@H](Cc2ccc(OC)cc2)N(C)C(=O)[C@@H]2CCCN2C(=O)[C@H](CC(C)C)NC(=O)[C@@H](C)C(=O)[C@H](C(C)C)OC(=O)C[C@@H]1O (stereo not given in full) | condition met |
| CC[C@H](C)[C@H]1NC(=O)[C@@H](NC(=O)[C@@H](CC(C)C)N(C)C(=O)[C@H]2C=CCN2)[C@@H](C)OC(=O)[C@H](Cc2ccc(OC)cc2)N(C)C(=O)[C@@H]2CCCN2C(=O)[C@H](CC(C)C)NC(=O)[C@@H](C)C(=O)[C@H](C(C)C)OC(=O)C[C@@H]1O | condition not met |
| CC[C@H](C)[C@H]1NC(=O)[C@@H](NC(=O)[C@@H](CC(C)C)N(C)C[C@@H]2CCCN2C(=O)[C@@H](C)O)[C@@H](C)OC(=O)[C@H](Cc2ccc(OC)cc2)N(C)C(=O)[C@@H]2CCCN2C(=O)[C@H](CC(C)C)NC(=O)[C@@H](C)C(=O)[C@H](C(C)C)OC(=O)C[C@@H]1O | condition not met |

====

Quick list: LC50 per entry.
- method_description: Lethal concentration for inhibitory activity evaluated in NCI-60 tumor cell screen
- Type: functional
- protocol_conditions: human

| structure_string | LC50 |
| --- | --- |
| CC[C@H](C)[C@H]1NC(=O)[C@@H](NC(=O)[C@@H](CC(C)C)N(C)C[C@@H]2CCCN2C(=O)[C@@H](C)O)[C@@H](C)OC(=O)[C@H](Cc2ccc(OC)cc2)N(C)C(=O)[C@@H]2CCCN2C(=O)[C@H](CC(C)C)NC(=O)[C@@H](C)C(=O)[C@H](C(C)C)OC(=O)C[C@@H]1O | 3 µM |
| CC[C@H](C)[C@H]1NC(=O)[C@@H](NC(=O)[C@@H](CC(C)C)N(C)C(=O)[C@@H]2C=CCN2C(=O)[C@@H](C)O)[C@@H](C)OC(=O)[C@H](Cc2ccc(OC)cc2)N(C)C(=O)[C@@H]2CCCN2C(=O)[C@H](CC(C)C)NC(=O)[C@@H](C)C(=O)[C@H](C(C)C)OC(=O)C[C@@H]1O | 0.083 µM |
| CC[C@H](C)[C@H]1NC(=O)[C@@H](NC(=O)[C@@H](CC(C)C)N(C)C(=O)[C@H]2C=CCN2)[C@@H](C)OC(=O)[C@H](Cc2ccc(OC)cc2)N(C)C(=O)[C@@H]2CCCN2C(=O)[C@H](CC(C)C)NC(=O)[C@@H](C)C(=O)[C@H](C(C)C)OC(=O)C[C@@H]1O | 7 µM |
